What Ka was measured for each of the following?
- target.under.test: GRP receptors on Swiss 3T3 cells (Mus musculus, UniProt P21729)
- Construct: conducted in 24-well tissue culture plates (GIBCO) using Swiss 3T3 cells; endogenous in cells; host or cells: Murine Swiss 3T3 fibroblasts (intact confluent, quiescent cells)
- Sequence (P21729 whole entry): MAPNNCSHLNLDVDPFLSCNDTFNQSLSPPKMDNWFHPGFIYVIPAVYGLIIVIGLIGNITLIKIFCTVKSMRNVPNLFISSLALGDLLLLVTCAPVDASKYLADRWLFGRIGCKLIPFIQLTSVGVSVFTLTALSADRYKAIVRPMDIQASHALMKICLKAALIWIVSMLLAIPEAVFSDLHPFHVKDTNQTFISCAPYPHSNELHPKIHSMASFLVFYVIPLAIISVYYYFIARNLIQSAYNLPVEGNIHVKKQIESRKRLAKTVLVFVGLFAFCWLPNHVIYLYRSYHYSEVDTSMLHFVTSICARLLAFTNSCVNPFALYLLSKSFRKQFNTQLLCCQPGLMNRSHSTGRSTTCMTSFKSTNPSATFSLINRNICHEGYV
- measurement.notes: Receptor binding assay: displacement of 125I-GRP(14-27) on Swiss 3T3 cells
- Set-up: species or system Murine
- cond: association constant, 0.2 nM 125I-GRP(14-27), Swiss 3T3 cells, 37° C. 30 min; N.D.=NO DISPLACEMENT
Where a SMILES comes first, the peptide text is derived from it. [ ]: non-standard residue; d: D form. The star is where a group is joined. His(τ-Bzl) = N[C@@H](Cc1cn(Cc2ccccc2)cn1)C(=O)O; X2 = CC(C)C[C@@H](CN[C@@H](CC(C)C)C(N)=O)N*; dTpi = O=C(O)[C@H]1Cc2c([nH]c3ccccc23)CN1
Numbers only, in nM⁻¹.

Take a look at these entries with their results.
CC(C)C[C@@H](CN[C@@H](Cc1ccccc1)C(N)=O)NC(=O)[C@H](Cc1c[nH]cn1)NC(=O)CNC(=O)[C@@H](NC(=O)[C@H](C)NC(=O)[C@H](Cc1c[nH]c2ccccc12)NC(=O)[C@H](CCC(N)=O)NC(=O)[C@H]1Cc2c([nH]c3ccccc23)CN1)C(C)C [Peptide 12] (HELM PEPTIDE1{[O=C([C@H]1Cc2c([nH]c3ccccc23)CN1)[*:2]].Q.W.A.V.G.H.[CC(C)C[C@@H](CN[C@@H](Cc1ccccc1)C(N)=O)N[*:1]]}$$$$V2.0)	0.014
CC(C)C[C@@H](CN[C@@H](CC(C)C)C(N)=O)NC(=O)[C@H](Cc1c[nH]cn1)NC(=O)CNC(=O)[C@@H](NC(=O)[C@H](C)NC(=O)[C@H](Cc1c[nH]c2ccccc12)NC(=O)[C@H](Cc1cn(Cc2ccccc2)cn1)NC(=O)[C@H]1Cc2c([nH]c3ccccc23)CN1)C(C)C [Peptide 8] (H-[dTpi][His(τ-Bzl)]WAVGH-X2)	0.014

Continue with the molecule presented below.
Task: Given CSCC[C@H](NC(=O)[C@H](CC(C)C)NC(=O)[C@H](Cc1c[nH]cn1)NC(=O)CNC(=O)[C@@H](NC(=O)[C@H](C)NC(=O)[C@H](Cc1c[nH]c2ccccc12)NC(=O)[C@H](Cc1c[nH]cn1)NC(=O)[C@H](CC(N)=O)NC(=O)CNC(=O)[C@H](CCCNC(=N)N)NC(=O)[C@@H]1CCCN1C(=O)[C@H](Cc1ccc(O)cc1)NC(=O)[C@@H](N)CCSC)C(C)C)C(N)=O [GRP(14-27), reference compound] , respond with its Ka.
Result: 0.758

====

- target.under.test: GRP receptors on Swiss 3T3 cells (Mus musculus)
- Construct: conducted in 24-well tissue culture plates (GIBCO) using Swiss 3T3 cells; endogenous in cells
- measurement.notes: Receptor binding assay: displacement of 125I-GRP(14-27) on Swiss 3T3 cells
- cond: calculated by Cheng and Prussoff equation IC50=Kc(1+L/Kh); 0.2 nM radioligand
- Description: (A) Receptor Binding Assay Binding of ^125 I-GRP(14-27) and displacement by bombesin antagonists were conducted in 24-well tissue culture plates (GIBCO) using Swiss 3T3 cells. Murine Swiss 3T3 fibroblasts were maintained by weekly passage in DMEM containing 10% FCBS and antimycotics. Cultures were incubated in 5% CO2 in air at 37° C. The wells were seeded with 10^5 cells/well (viability >95%), grown to confluence and quiescency. The binding procedure was conducted 7 days after seeding. […]
One threshold, 6 nM, splits the recorded IC50 values: lower ones are yes (1), equal or higher ones are no (0).

CC(C)C[C@@H](CN[C@@H](CC(C)C)C(N)=O)NC(=O)[C@H](Cc1c[nH]cn1)NC(=O)CNC(=O)[C@@H](NC(=O)[C@H](C)NC(=O)[C@H](Cc1c[nH]c2ccccc12)NC(=O)[C@H](CCC(N)=O)NC(=O)[C@H]1Cc2c([nH]c3ccccc23)CN1)C(C)C [Peptide 5]	no (0)

Task: I'd appreciate it if you could check whether CNC(=O)CC[C@H](NC(=O)[C@H](N)Cc1c[nH]c2ccccc12)C(=O)N[C@@H](Cc1c[nH]c2ccccc12)C(=O)N[C@@H](C)C(=O)N[C@H](C(=O)NCC(=O)N[C@@H](Cc1c[nH]cn1)C(=O)N[C@H](CN[C@@H](Cc1ccccc1)C(N)=O)CC(C)C)C(C)C [Peptide 11] has IC50 smaller than 6 nM.
Result: yes (1)

Task: For this molecule, is IC50 lower than 6 nM? CC(C)C[C@@H](CN[C@@H](Cc1ccccc1)C(N)=O)NC(=O)[C@H](Cc1c[nH]cn1)NC(=O)CNC(=O)[C@@H](NC(=O)[C@H](C)NC(=O)[C@H](Cc1c[nH]c2ccccc12)NC(=O)[C@H](CCC(N)=O)NC(=O)[C@H](N)Cc1c[nH]c2ccccc12)C(C)C [Peptide 10]
Result: yes (1)

Task: Confirm or reject: IC50 of CC(C)C[C@@H](CN1Cc2[nH]c3ccccc3c2C[C@H]1C(N)=O)NC(=O)[C@H](Cc1c[nH]cn1)NC(=O)CNC(=O)[C@@H](NC(=O)[C@H](C)NC(=O)[C@H](Cc1c[nH]c2ccccc12)NC(=O)[C@H](CCC(N)=O)NC(=O)[C@H](N)Cc1ccccc1)C(C)C [Peptide 17] lies strictly below 6 nM
Result: yes (1)

Task: Just wondering, is IC50 of CC(C)C[C@@H](CN[C@@H](Cc1c[nH]c2ccccc12)C(N)=O)NC(=O)[C@H](Cc1c[nH]cn1)NC(=O)CNC(=O)[C@@H](NC(=O)[C@H](C)NC(=O)[C@H](Cc1c[nH]c2ccccc12)NC(=O)[C@H](CCC(N)=O)NC(=O)[C@H](N)Cc1c[nH]c2ccccc12)C(C)C [Peptide 29] below 6 nM?
Result: no (0)

These entries and their values trace back to patent US5244883A.
